Reported pKd by item:
# EXPERIMENTAL_TARGET: T1, human PSMA expressed with an N-terminal hexahistidine tag (6h.hPSMA, R&D) (human, UniProt Q04609 44-750)
# T1 construct: Bought soluble protein; also called soluble human PSMA; human PSMA protein
# T1 sequence (Q04609 other isoform, or with tags, fused parts or gaps limits assumed): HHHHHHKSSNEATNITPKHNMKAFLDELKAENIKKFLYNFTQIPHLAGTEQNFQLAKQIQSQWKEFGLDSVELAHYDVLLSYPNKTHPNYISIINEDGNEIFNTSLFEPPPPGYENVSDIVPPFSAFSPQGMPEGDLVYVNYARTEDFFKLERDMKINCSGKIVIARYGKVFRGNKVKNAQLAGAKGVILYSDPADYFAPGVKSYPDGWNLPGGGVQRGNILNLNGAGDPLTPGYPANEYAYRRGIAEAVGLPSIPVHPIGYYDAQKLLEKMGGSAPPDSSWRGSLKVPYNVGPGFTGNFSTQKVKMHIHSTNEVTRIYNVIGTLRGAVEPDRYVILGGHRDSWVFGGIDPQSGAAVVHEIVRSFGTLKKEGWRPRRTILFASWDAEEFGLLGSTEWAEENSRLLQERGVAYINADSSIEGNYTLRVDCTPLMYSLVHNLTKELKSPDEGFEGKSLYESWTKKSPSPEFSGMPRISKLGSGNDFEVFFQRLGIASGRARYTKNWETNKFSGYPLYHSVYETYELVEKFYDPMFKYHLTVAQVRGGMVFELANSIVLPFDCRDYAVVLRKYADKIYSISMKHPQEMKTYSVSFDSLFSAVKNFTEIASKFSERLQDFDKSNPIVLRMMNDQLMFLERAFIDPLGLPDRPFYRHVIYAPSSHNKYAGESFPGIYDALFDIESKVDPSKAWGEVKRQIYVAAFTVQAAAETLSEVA
# PROTOCOL_NOTES: SPR Biacore T-200, 37 C, antibody-capture (anti-human Fc), 6h.hPSMA as analyte
# Description: In this example, anti-PSMA antibodies were assessed for their ability to bind to human PSMA. […] Measurements were conducted on a Biacore™ T-200 instrument (GE Healthcare). […] Kinetic association (kₐ) and dissociation (kd) rate constants were determined by fitting the real-time sensorgrams to a 1:1 binding model using Scrubber 2.0c curve fitting software. […]
pKd (log units): -log10 of the concentration in mol/L.

[
  {
    "BINDER": "H1H11805P2 (antibody, human IgG1, V domains shown, human IgG1) VH: EVQLVESGGGLVQPGGSLRLSCVVSGFTFNNYWMSWVRQAPGKGLEWVANIKKDGSEKYYVDSVKGRFTISRDNAKNSLYLQMNSLRAEDTAVYYCARDIMATIIDWGQGTLVTVSS VL: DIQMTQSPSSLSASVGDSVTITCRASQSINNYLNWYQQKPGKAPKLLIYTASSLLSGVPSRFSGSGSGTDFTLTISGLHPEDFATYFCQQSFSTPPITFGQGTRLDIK",
    "pKd": 7.12
  }
]

Now consider the entry below.
Prompt: Please look up its pKd: H1H11792P2 (antibody, human IgG1, V domains shown, human IgG1) VH: QVQLVESGGGVVQPGRSLRLSCAASGFTFSSYGMHWVRQPPGKGLEWVAIMSYDGSNKYYADSVKGRFTISRDNSKNTLYLQMNSLRVEDTAVYYCAKDQYYDFLTFDYTLDYWGQGTLVTVSS VL: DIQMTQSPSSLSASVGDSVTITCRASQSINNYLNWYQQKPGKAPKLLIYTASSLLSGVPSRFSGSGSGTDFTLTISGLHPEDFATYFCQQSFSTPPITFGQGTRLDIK
Response: 9.69

The measurements presented in this section are drawn from patent US20190127480A1.
